Measured pKi of individual entries
- ASSAYED_TARGET: Nitric oxide synthase, inducible (Mus musculus)
- Sequence (P29477 whole entry): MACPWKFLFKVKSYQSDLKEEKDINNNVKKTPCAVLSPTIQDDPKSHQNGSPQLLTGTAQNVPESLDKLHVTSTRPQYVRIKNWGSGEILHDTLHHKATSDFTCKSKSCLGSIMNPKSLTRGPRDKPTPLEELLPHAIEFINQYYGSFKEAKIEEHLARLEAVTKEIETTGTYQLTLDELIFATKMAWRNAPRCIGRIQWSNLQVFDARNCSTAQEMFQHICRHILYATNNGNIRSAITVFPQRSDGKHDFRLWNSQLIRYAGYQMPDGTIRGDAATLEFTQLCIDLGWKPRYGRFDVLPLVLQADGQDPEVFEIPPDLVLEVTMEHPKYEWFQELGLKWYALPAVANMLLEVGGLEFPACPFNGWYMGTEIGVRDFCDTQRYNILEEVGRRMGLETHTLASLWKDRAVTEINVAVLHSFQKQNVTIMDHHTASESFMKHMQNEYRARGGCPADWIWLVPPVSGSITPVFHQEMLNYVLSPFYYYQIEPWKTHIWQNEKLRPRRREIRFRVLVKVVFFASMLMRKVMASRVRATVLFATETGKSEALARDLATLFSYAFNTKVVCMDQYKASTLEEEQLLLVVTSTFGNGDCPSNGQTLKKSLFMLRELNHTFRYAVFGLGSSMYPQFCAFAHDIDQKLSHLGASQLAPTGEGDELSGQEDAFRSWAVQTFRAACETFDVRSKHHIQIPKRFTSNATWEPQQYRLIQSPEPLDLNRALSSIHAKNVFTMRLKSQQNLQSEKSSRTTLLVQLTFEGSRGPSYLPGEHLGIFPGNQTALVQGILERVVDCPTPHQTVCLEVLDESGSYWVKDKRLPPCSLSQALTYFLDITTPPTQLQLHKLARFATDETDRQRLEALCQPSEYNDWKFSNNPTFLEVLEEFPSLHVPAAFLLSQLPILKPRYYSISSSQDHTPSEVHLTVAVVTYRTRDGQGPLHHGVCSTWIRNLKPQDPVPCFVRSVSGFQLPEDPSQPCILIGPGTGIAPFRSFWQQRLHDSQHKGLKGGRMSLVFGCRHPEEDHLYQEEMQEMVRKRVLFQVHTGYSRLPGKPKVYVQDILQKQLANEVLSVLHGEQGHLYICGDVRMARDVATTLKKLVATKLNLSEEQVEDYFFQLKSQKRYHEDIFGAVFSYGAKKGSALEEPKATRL
- ASSAY_INFO: Inhibition of recombinant mouse macrophage iNOS expressed in Escherichia coli using L-arginine as substrate after 30 secs by hemoglobin capture assay
The quantity pKi is defined as the negative base-10 logarithm of the molar concentration.

# count of solved cases: 2
INSERT INTO results (smiles_input, observed_result) VALUES
  ('COc1ccncc1CCCNCc1ccc2ccc(N)nc2c1', 4.76),
  ('CN(C)c1cccc(CNCc2ccc3ccc(N)nc3c2)c1', 4.52);

# input Sample Cc1ccncc1CCCNCc1ccc2ccc(N)nc2c1 — what was its pKi?
# output 4.86

# input Which pKi is reported for this molecule? CN(C)c1ccc(CNCc2ccc3ccc(N)nc3c2)cc1
# output 4.37

---

Let's go through some Ki measurements on UniProtKB P29475 together.
Sequence (P29475 whole entry): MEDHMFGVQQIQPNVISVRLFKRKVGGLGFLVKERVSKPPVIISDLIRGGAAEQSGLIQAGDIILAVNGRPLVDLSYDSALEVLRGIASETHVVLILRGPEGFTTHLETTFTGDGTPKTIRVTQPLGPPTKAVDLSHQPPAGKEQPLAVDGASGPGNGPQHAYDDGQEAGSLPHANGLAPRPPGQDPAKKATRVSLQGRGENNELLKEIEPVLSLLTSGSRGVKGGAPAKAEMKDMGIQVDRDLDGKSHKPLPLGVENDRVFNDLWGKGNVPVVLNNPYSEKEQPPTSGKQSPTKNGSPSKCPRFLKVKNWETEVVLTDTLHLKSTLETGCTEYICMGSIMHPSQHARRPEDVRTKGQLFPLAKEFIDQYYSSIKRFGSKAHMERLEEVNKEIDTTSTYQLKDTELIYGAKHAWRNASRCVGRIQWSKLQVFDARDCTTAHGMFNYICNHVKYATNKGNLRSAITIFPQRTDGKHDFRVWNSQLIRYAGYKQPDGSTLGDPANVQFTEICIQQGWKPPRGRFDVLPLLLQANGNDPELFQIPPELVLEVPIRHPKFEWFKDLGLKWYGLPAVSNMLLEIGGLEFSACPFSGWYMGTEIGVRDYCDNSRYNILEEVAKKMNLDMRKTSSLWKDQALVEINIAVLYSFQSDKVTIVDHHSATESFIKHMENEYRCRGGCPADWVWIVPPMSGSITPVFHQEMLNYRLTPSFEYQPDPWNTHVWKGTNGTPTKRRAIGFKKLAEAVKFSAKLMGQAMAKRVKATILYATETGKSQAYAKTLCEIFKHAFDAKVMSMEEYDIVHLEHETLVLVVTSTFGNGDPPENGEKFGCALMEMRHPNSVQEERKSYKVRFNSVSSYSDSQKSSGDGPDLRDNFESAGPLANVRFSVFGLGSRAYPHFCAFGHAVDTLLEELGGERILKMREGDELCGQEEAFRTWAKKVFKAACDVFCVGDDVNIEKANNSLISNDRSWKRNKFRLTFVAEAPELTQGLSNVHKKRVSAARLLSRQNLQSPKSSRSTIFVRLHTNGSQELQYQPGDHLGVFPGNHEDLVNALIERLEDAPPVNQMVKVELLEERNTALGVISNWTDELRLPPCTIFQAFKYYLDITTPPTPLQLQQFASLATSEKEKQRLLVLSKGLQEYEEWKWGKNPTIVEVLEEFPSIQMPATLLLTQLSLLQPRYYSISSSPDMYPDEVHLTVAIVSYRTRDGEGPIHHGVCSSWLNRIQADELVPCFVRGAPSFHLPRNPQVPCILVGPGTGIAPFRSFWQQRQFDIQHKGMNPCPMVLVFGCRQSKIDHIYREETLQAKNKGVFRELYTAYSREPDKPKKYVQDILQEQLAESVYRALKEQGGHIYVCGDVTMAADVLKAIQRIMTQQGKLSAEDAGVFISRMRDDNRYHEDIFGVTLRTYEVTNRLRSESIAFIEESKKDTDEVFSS
// return numeric value only (unit: nM, not printed)

// known answers, use as guide
INSERT INTO measurements (smiles_input, property_name, unit_spec, observed_result) VALUES
  ('Cc1ccncc1CCCNCc1ccc2ccc(N)nc2c1', 'Ki', 'nM', 130),
  ('Nc1ccc2ccc(CNCCCc3cccnc3)cc2n1', 'Ki', 'nM', 108);

Please examine the following record next.
# input Sample CN(C)c1cccc(CNCc2ccc3ccc(N)nc3c2)c1 — what was its Ki?
# output 1020

---

- ASSAYED_TARGET: Nitric oxide synthase 3 (Bos taurus)
- Sequence (P29473 whole entry): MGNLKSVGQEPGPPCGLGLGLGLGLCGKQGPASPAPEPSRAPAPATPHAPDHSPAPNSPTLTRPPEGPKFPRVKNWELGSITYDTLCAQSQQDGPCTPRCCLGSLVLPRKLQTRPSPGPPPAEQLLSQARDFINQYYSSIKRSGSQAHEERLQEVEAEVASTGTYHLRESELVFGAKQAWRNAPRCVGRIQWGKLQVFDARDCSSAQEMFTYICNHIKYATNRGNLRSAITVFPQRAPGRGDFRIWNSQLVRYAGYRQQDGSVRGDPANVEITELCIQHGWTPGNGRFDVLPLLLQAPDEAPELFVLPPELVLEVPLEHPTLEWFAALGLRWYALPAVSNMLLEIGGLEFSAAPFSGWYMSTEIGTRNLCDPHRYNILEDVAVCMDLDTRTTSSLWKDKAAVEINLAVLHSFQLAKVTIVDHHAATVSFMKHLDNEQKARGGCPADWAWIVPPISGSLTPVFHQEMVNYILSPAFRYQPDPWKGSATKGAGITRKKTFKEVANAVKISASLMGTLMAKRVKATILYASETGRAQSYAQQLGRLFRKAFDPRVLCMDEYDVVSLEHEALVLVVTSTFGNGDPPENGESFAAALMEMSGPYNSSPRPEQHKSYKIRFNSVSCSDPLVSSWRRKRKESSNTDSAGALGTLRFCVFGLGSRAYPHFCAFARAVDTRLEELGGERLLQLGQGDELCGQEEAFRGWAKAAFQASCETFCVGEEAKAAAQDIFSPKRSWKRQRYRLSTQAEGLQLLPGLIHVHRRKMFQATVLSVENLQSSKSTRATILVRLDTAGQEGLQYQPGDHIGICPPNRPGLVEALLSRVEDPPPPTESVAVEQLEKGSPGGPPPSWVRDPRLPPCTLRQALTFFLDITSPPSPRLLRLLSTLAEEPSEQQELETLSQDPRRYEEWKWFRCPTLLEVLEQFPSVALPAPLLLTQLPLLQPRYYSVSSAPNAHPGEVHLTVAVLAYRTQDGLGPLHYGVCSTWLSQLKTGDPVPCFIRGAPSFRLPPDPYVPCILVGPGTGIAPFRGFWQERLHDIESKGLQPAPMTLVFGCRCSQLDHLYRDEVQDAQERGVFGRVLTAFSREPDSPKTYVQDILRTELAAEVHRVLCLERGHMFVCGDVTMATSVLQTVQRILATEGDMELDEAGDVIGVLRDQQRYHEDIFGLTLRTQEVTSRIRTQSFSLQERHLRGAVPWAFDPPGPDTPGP
- ASSAY_INFO: Inhibition of recombinant bovine eNOS expressed in Escherichia coli using L-arginine as substrate after 30 secs by hemoglobin capture assay
PROPERTY_NAME: pKi
Reminder that pKi is minus the log10 of a molar concentration.

INSERT INTO assay_data (smiles_input, assayed_target, observed_result) VALUES
  ('Nc1ccc2ccc(CNCCCc3cccnc3)cc2n1', 'Nitric oxide synthase 3 (Bos taurus)', 5.98),
  ('CN(C)c1cccc(CNCc2ccc3ccc(N)nc3c2)c1', 'Nitric oxide synthase 3 (Bos taurus)', 5.19),
  ('Cc1ccncc1CCCNCc1ccc2ccc(N)nc2c1', 'Nitric oxide synthase 3 (Bos taurus)', 6.25);

# input Field: pKi (Nitric oxide synthase 3 (Bos taurus)). Entry: CN(C)c1ccc(CNCc2ccc3ccc(N)nc3c2)cc1
# output 5.07
